Attribute: pEC50
Target: T1, human LAIR1 extracellular domain (ECD) protein with 6 HIS tag at the C-terminus (human, UniProt Q6GTX8 22-165)
T1 construct: Produced recombinantly in HEK293 cells; the whole entry is named here; also called LAIR1 ECD; LAIR1-ECD
T1 chain: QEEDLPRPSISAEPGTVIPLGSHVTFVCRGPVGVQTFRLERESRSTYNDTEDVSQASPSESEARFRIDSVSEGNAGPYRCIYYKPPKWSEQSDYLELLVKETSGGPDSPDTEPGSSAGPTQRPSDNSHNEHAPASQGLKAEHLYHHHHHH
Assay: ELISA, LAIR1 ECD coated, mAb titrated, anti-rabbit HRP
Notebook: values listed as pEC50 are -log10 of the concentration (mol/L).

Solved entries:
LA-94 (antibody, V domains shown, Rabbit monoclonal IgG; Called an agonist antibody; also called mAb LA-94; agonist Ab LA-94) VH: EQSLEESEGRLVTPGTPLTLTCTASGFSLSGYHMSWVRQAPGKGLEYIGYISERGTSYYANWAKGRFTVSKSSSSTVVLSIISPTAEDTATYFCARYGGGDSAFILWGPGTLVTISS VL: ELVMTQTPASVSGPVGGTVTIKCQASHNIDNSLAWYQQKPGQPPKLLIYKASTLASGVSSRFKGSGSGTEYTLTISDLECADAATYFCQGTIGLNSGCAFGGGTEVEIK :: 9.92
LA-37 (antibody, V domains shown, Rabbit monoclonal IgG; also called mAb LA-37) VH: EQSLEESGGDLVKPGASLTLTCKASGFSFSSSEFMCWVRQAPGKGLEWIACIYGGLSDDTYFASWAKGRFTISKTSSITVTLQMTSLTAADTATYFCARSCDVNYYGFDPWGPGTLVTISS VL: ELVLTQTPAPVSAAVGDTVTIKCQASQNKGTNLAWYQQKPGQPPKLLIYLSSTLASGVPPRFKGSRSGTEYTLTISDLECADAATYFCQSTYYGSNGLTFGGGTEVEIK :: 10.30
LA-142-2 (antibody, V domains shown, Rabbit monoclonal IgG) VH: AAVKESGGRLVTPGTPLTLTCTASGFSLYKYNIQWVRQAPGKGLEYIGASTYAGYTYYASWAKGRVTISRTSTTVDLKMTSPTTEDTATYFCARHIDGDYSGYALWGPGTLVTVSS VL: ELVLTQTPASVSAAVGGTVTIKCQASQSIGTWFAWYQQKPGQSPKLLIYGASNLASGVSSRFKGIRSGTEYTLTISDLECADAATYYCQCSDVGNTYGAAFGGGTEVEIN :: 9.55

// sample LA-245 (antibody, V domains shown, Rabbit monoclonal IgG) VH: QSLQESRGRLVTPGTPLTLTCTASGFSLSSYHMGWVRQAPGKGLEWIGYIHTNRNTWYANWAKGRFTISKTSSTTVNLRMTSPTTEDTATYFCARGSYGDYNFLFDVWGPGTLVTVSS VL: ELVMTQTPASVSEPVGGTVTINCQASEDISIYLAWYQQKPGQPPKLLIYDASTLESGVPSRFSGSGSRTQFTLTISDLECADAATYYCQQYSTTDTNNLFGGGTEVEIK , its pEC50 was 10.05

// sample LA-101 (antibody, V domains shown, Rabbit monoclonal IgG) VH: EQSVEESGGRLVTPGTPLTLTCTVSGFSLSSFHMCWVRQAPGKGLEYIGIIYPGGSTGYANWAKGRFTVSKASNTVDLKISSPTTEDTATYFCARVNYGDWINGMDLWGPGTLVTISS VL: ELDMTQTPASVSEPVGGTVTIKCQASQSIGSNLAWYQQKPGQRPKLLIYKASTLASGVPSRFKGSGSGTDFTLTISDLECADAASYYCQQAYWSGNVDNVFGGGTEVEIK , its pEC50 was 10.30
